Taken from BindingDB's records for PubMed 10496952.

target.or.system: Adenosine receptor A1 (Homo sapiens, UniProt P30542)
Sequence (P30542 whole entry): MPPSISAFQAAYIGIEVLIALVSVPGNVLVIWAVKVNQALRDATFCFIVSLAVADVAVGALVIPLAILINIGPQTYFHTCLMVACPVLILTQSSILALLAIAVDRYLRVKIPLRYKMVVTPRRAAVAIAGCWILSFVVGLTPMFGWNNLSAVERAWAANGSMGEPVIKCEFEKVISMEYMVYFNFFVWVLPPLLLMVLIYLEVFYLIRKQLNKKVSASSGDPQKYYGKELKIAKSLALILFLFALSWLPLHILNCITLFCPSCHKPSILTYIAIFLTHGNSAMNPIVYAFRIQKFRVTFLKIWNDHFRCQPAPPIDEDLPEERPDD
reported.property: Ki

Quick check: Ki of CCCn1c(=O)[nH]c(=O)c2[nH]cnc21 [3-Propylxanthine (enprofylline)] ?
> 10 µM
